- Test system: PC-3 multi-cell spheroids, viability
- protocol.notes: Anticancer human tumor PC-3 cell line growth inhibition [IpAb];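 further: spheroids exposed to compounds for 7 days before readout; 100% = DMSO vehicle control wells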
- run.conditions: second compound 0.316 µM; first compound 0.0316 µM; hits give low values
parameter.measured: viability, T/C

molecule | parameter.measured | value
Cn1ncnc1[C@H]1c2n[nH]c(=O)c3cc(F)cc(c23)N[C@@H]1c1ccc(F)cc1 + CC(C)NCC(C(=O)N1CCN(c2ncnc3c2C(C)CC3O)CC1)c1ccc(Cl)cc1 | viability, T/C | 37.9%
C=CC(=O)N1CCN(c2nc(=O)n(-c3c(C)ccnc3C(C)C)c3nc(-c4c(O)cccc4F)c(F)cc23)C(C)C1 (stereo not drawn) + CCN1CCN(Cc2ccc(Nc3ncc(F)c(-c4cc(F)c5nc(C)n(C(C)C)c5c4)n3)nc2)CC1 | viability, T/C | 65.2%
Cn1nccc1Nc1nccc(-c2ccn(C(CO)c3ccc(Cl)c(F)c3)c(=O)c2)n1 (stereo not drawn) + CC(C)NCC(C(=O)N1CCN(c2ncnc3c2C(C)CC3O)CC1)c1ccc(Cl)cc1 | viability, T/C | 42.8%
